All values here come from paper PMC9305971.

- method.summary: Ex vivo biodistribution of [18F]14 and [18F]15
- Format: in vivo, Rj:NMRI-Foxn1^nu/nu mice
- condition: mouse, iv, 0.2 nmol, 60 min post injection, i.v., blocked with octreotide; read-out: lung
measured.property: tissue uptake at 1 h
Could you kindly put the unit after your number?

{"columns": ["molecule", "tissue uptake at 1 h"],
 "data": [
  ["C[C@@H](O)[C@@H]1NC(=O)[C@H](CCCCN)NC(=O)[C@@H](Cc2c[nH]c3ccccc23)NC(=O)[C@H](Cc2ccc(O)cc2)NC(=O)[C@@H](NC(=O)[C@@H](Cc2ccccc2)NC(=O)CCOCCOCCOCCOCCON=Cc2ccc(C(=O)NCCOCCOCCOCCNC(=O)OC3CCCc4cnnc(-c5ccc(CC(=O)NCC[N+](C)(C)C[B-](F)(F)F)cc5)c4CC3)cc2)CSSC[C@@H](C(=O)N[C@H](CO)[C@@H](C)O)NC1=O (some centres unmarked) [[^18F]15]", "3.6 %ID/g"]
]}

Pending molecule:
Request the reported tissue uptake at 1 h associated with C[C@@H](O)[C@@H]1NC(=O)[C@H](CCCCN)NC(=O)[C@@H](Cc2c[nH]c3ccccc23)NC(=O)[C@H](Cc2ccc(O)cc2)NC(=O)[C@@H](NC(=O)[C@@H](Cc2ccccc2)NC(=O)CCOCCOCCOCCOCCON=Cc2ccc(CNC(=O)OC3CCCc4cnnc(-c5ccc(CC(=O)NCC[N+](C)(C)C[B-](F)(F)F)cc5)c4CC3)cc2)CSSC[C@@H](C(=O)N[C@H](CO)[C@@H](C)O)NC1=O (some centres unmarked) [[^18F]14]
5.5 %ID/g

====

Quick list: tissue uptake at 2 h per entry.
- method.summary: Ex vivo biodistribution of [18F]14 and [18F]15
- Format: in vivo, Rj:NMRI-Foxn1^nu/nu mice
- condition: mouse, occipital bone, iv, 0.2 nmol, 120 min post injection, i.v.; read-out: bone, occipital
Supply the numeric figure in %ID/g, leaving out any unit text.

{"columns": ["molecule", "measurement.units", "result.value"],
 "data": [
  ["C[C@@H](O)[C@@H]1NC(=O)[C@H](CCCCN)NC(=O)[C@@H](Cc2c[nH]c3ccccc23)NC(=O)[C@H](Cc2ccc(O)cc2)NC(=O)[C@@H](NC(=O)[C@@H](Cc2ccccc2)NC(=O)CCOCCOCCOCCOCCON=Cc2ccc(CNC(=O)OC3CCCc4cnnc(-c5ccc(CC(=O)NCC[N+](C)(C)C[B-](F)(F)F)cc5)c4CC3)cc2)CSSC[C@@H](C(=O)N[C@H](CO)[C@@H](C)O)NC1=O (some centres unmarked) [[^18F]14]", "%ID/g", 1.7]
]}

Pending molecule:
Request the reported tissue uptake at 2 h associated with C[C@@H](O)[C@@H]1NC(=O)[C@H](CCCCN)NC(=O)[C@@H](Cc2c[nH]c3ccccc23)NC(=O)[C@H](Cc2ccc(O)cc2)NC(=O)[C@@H](NC(=O)[C@@H](Cc2ccccc2)NC(=O)CCOCCOCCOCCOCCON=Cc2ccc(C(=O)NCCOCCOCCOCCNC(=O)OC3CCCc4cnnc(-c5ccc(CC(=O)NCC[N+](C)(C)C[B-](F)(F)F)cc5)c4CC3)cc2)CSSC[C@@H](C(=O)N[C@H](CO)[C@@H](C)O)NC1=O (some centres unmarked) [[^18F]15]
0.6

====

Quick list: tissue uptake at 1 h per entry.
- method.summary: Ex vivo biodistribution of [18F]14 and [18F]15
- Assay type: in vivo, Rj:NMRI-Foxn1^nu/nu mice
- condition: mouse, iv, 0.2 nmol, 60 min post injection, i.v., baseline; read-out: brain
Supply the numeric figure in %ID/g, leaving out any unit text.

{"columns": ["molecule", "result.value"],
 "data": [
  ["C[C@@H](O)[C@@H]1NC(=O)[C@H](CCCCN)NC(=O)[C@@H](Cc2c[nH]c3ccccc23)NC(=O)[C@H](Cc2ccc(O)cc2)NC(=O)[C@@H](NC(=O)[C@@H](Cc2ccccc2)NC(=O)CCOCCOCCOCCOCCON=Cc2ccc(CNC(=O)OC3CCCc4cnnc(-c5ccc(CC(=O)NCC[N+](C)(C)C[B-](F)(F)F)cc5)c4CC3)cc2)CSSC[C@@H](C(=O)N[C@H](CO)[C@@H](C)O)NC1=O (some centres unmarked) [[^18F]14]", 0.3]
]}

Request the reported tissue uptake at 1 h associated with C[C@@H](O)[C@@H]1NC(=O)[C@H](CCCCN)NC(=O)[C@@H](Cc2c[nH]c3ccccc23)NC(=O)[C@H](Cc2ccc(O)cc2)NC(=O)[C@@H](NC(=O)[C@@H](Cc2ccccc2)NC(=O)CCOCCOCCOCCOCCON=Cc2ccc(C(=O)NCCOCCOCCOCCNC(=O)OC3CCCc4cnnc(-c5ccc(CC(=O)NCC[N+](C)(C)C[B-](F)(F)F)cc5)c4CC3)cc2)CSSC[C@@H](C(=O)N[C@H](CO)[C@@H](C)O)NC1=O (some centres unmarked) [[^18F]15]
0.3

====

Quick list: tissue uptake at 1 h per entry.
- method.summary: Ex vivo biodistribution of [18F]14 and [18F]15
- Type: in vivo, Rj:NMRI-Foxn1^nu/nu mice
- condition: mouse, tumor, iv, 0.2 nmol, AR42J xenograft, 60 min post injection, i.v., blocked with octreotide; read-out: tumor uptake
Supply the numeric figure in %ID/g, leaving out any unit text.

{"columns": ["molecule", "result.value"],
 "data": [
  ["C[C@@H](O)[C@@H]1NC(=O)[C@H](CCCCN)NC(=O)[C@@H](Cc2c[nH]c3ccccc23)NC(=O)[C@H](Cc2ccc(O)cc2)NC(=O)[C@@H](NC(=O)[C@@H](Cc2ccccc2)NC(=O)CCOCCOCCOCCOCCON=Cc2ccc(CNC(=O)OC3CCCc4cnnc(-c5ccc(CC(=O)NCC[N+](C)(C)C[B-](F)(F)F)cc5)c4CC3)cc2)CSSC[C@@H](C(=O)N[C@H](CO)[C@@H](C)O)NC1=O (some centres unmarked) [[^18F]14]", 2.2]
]}

Pending molecule:
Request the reported tissue uptake at 1 h associated with C[C@@H](O)[C@@H]1NC(=O)[C@H](CCCCN)NC(=O)[C@@H](Cc2c[nH]c3ccccc23)NC(=O)[C@H](Cc2ccc(O)cc2)NC(=O)[C@@H](NC(=O)[C@@H](Cc2ccccc2)NC(=O)CCOCCOCCOCCOCCON=Cc2ccc(C(=O)NCCOCCOCCOCCNC(=O)OC3CCCc4cnnc(-c5ccc(CC(=O)NCC[N+](C)(C)C[B-](F)(F)F)cc5)c4CC3)cc2)CSSC[C@@H](C(=O)N[C@H](CO)[C@@H](C)O)NC1=O (some centres unmarked) [[^18F]15]
3.1

====

- method.summary: Ex vivo biodistribution of [18F]14 and [18F]15
- Type: in vivo, Rj:NMRI-Foxn1^nu/nu mice
- condition: mouse, iv, 0.2 nmol, 60 min post injection, i.v., blocked with octreotide; read-out: gallbladder
measured.property: tissue uptake at 1 h (%ID/g)
Supply the numeric figure in %ID/g, leaving out any unit text.

{"columns": ["compound", "measurement.units", "result.value"],
 "data": [
  ["C[C@@H](O)[C@@H]1NC(=O)[C@H](CCCCN)NC(=O)[C@@H](Cc2c[nH]c3ccccc23)NC(=O)[C@H](Cc2ccc(O)cc2)NC(=O)[C@@H](NC(=O)[C@@H](Cc2ccccc2)NC(=O)CCOCCOCCOCCOCCON=Cc2ccc(C(=O)NCCOCCOCCOCCNC(=O)OC3CCCc4cnnc(-c5ccc(CC(=O)NCC[N+](C)(C)C[B-](F)(F)F)cc5)c4CC3)cc2)CSSC[C@@H](C(=O)N[C@H](CO)[C@@H](C)O)NC1=O (some centres unmarked) [[^18F]15]", "%ID/g", 18.8]
]}

Pending compound:
Request the reported tissue uptake at 1 h associated with C[C@@H](O)[C@@H]1NC(=O)[C@H](CCCCN)NC(=O)[C@@H](Cc2c[nH]c3ccccc23)NC(=O)[C@H](Cc2ccc(O)cc2)NC(=O)[C@@H](NC(=O)[C@@H](Cc2ccccc2)NC(=O)CCOCCOCCOCCOCCON=Cc2ccc(CNC(=O)OC3CCCc4cnnc(-c5ccc(CC(=O)NCC[N+](C)(C)C[B-](F)(F)F)cc5)c4CC3)cc2)CSSC[C@@H](C(=O)N[C@H](CO)[C@@H](C)O)NC1=O (some centres unmarked) [[^18F]14]
10.7

====

- method.summary: Ex vivo biodistribution of [18F]14 and [18F]15
- Assay type: in vivo, Rj:NMRI-Foxn1^nu/nu mice
- condition: mouse, iv, 0.2 nmol, 60 min post injection, i.v., baseline; read-out: urine
Quick list: tissue uptake at 1 h per entry.

{"columns": ["compound", "tissue uptake at 1 h"],
 "data": [
  ["C[C@@H](O)[C@@H]1NC(=O)[C@H](CCCCN)NC(=O)[C@@H](Cc2c[nH]c3ccccc23)NC(=O)[C@H](Cc2ccc(O)cc2)NC(=O)[C@@H](NC(=O)[C@@H](Cc2ccccc2)NC(=O)CCOCCOCCOCCOCCON=Cc2ccc(C(=O)NCCOCCOCCOCCNC(=O)OC3CCCc4cnnc(-c5ccc(CC(=O)NCC[N+](C)(C)C[B-](F)(F)F)cc5)c4CC3)cc2)CSSC[C@@H](C(=O)N[C@H](CO)[C@@H](C)O)NC1=O (some centres unmarked) [[^18F]15]", "~174 %ID/g"]
]}

Request the reported tissue uptake at 1 h associated with C[C@@H](O)[C@@H]1NC(=O)[C@H](CCCCN)NC(=O)[C@@H](Cc2c[nH]c3ccccc23)NC(=O)[C@H](Cc2ccc(O)cc2)NC(=O)[C@@H](NC(=O)[C@@H](Cc2ccccc2)NC(=O)CCOCCOCCOCCOCCON=Cc2ccc(CNC(=O)OC3CCCc4cnnc(-c5ccc(CC(=O)NCC[N+](C)(C)C[B-](F)(F)F)cc5)c4CC3)cc2)CSSC[C@@H](C(=O)N[C@H](CO)[C@@H](C)O)NC1=O (some centres unmarked) [[^18F]14]
~85 %ID/g
